Target: Ecm22 (UniProt Q05958)
Sequence: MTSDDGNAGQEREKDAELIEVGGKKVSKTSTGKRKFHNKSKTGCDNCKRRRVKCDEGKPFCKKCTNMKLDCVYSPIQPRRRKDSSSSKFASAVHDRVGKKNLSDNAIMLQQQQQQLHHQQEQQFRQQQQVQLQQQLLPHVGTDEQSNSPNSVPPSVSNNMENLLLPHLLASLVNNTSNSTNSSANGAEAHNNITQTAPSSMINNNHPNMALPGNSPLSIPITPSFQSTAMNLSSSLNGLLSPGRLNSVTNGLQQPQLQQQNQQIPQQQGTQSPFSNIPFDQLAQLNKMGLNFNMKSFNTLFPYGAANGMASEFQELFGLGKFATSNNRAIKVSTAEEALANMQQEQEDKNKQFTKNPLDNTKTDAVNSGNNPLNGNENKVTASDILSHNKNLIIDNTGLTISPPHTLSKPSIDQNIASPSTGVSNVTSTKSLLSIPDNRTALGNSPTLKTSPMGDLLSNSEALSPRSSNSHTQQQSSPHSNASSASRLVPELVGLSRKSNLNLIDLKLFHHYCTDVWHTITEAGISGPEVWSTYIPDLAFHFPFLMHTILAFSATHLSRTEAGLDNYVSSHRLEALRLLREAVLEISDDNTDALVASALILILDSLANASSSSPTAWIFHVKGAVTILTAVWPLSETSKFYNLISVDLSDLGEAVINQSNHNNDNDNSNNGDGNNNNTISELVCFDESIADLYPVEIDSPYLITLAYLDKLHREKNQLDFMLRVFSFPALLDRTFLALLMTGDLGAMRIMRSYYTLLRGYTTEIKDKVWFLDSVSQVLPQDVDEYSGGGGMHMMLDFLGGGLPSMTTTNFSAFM
Test: PBM E-score (8-mer binding enrichment) (E-score (-0.5 to 0.5)); higher = stronger / more preferred TF binding
Conditions: protein concentration: 200 nM; construct: GST-full length
Over roughly 33,000 sequences, “E-score (-0.5 to 0.5)” has its median near -0.041; the highest 2% begin near 0.37. The sample holds the highest values, similar sequences and a random draw of the others, so the mix is not that of the screen.
Reported PBM E-score values for a set of sequences

seq.string | PBM E-score
CGAAACGA | 0.424
GTGGAACA | 0.0214
ATGCAAGG | -0.193
CTGAACTA | -0.092
GTGAACGA | 0.426
AACGAACA | 0.409
CGTCTCAC | 0.0419
CTGAACGC | 0.023
AGAGAGCT | -0.169
ATGAACGC | 0.118
CGCCGTAA | 0.26
CTTTCGTA | 0.428
ATTTCTGA | -0.286
AGATAGCT | -0.0945
AGGGCTAC | -0.117
ACATGCCC | -0.0896
GTTTCGTA | 0.44
AGTCGAAC | 0.0504
CACTGCTG | -0.147
CACGACTC | 0.0577
ATGAACGA | 0.453
CGTAAAAA | 0.404
GAAGTATC | 0.0371
TGCACAAA | -0.22
GGCCGTAC | 0.419
AGCACCAT | -0.122
CGCCGTAC | 0.408
ATCTCGGC | 0.0673
AGTACGTC | 0.0542
GAACCGTA | 0.248
AGTACGCC | -0.0213
ATCTTTTA | 0.0457
CTGAACGA | 0.456
AGGCTTGC | -0.219
ATCACAAG | -0.0512
CACGACTG | 0.0526
CCGGAACC | -0.0325
GAATACTA | 0.141
CGAAACGC | 0.0992
CGTAAAAG | 0.367
AAATACGT | 0.0932
GATCCCGC | 0.0461
ACACCGTA | 0.313
AGCGACTA | 0.161
GACGAACA | 0.0113
CAATACGC | -0.0345
AGTAAATA | 0.00942
CTTTCGGA | 0.0148
TACGACTA | 0.438
AGCCGTAG | 0.0779
CACCCCCG | -0.2
GAATACGA | 0.432
AACCAATT | -0.233
AGCGAACA | 0.198
AACGAACG | 0.437
ATCGACTG | 0.076
AGACAGCA | -0.143
CCTAACAC | 0.0728
CACCCGCG | -0.0941
AACGACTG | 0.393
AACGACTC | 0.388
AACGAACT | 0.354
CACGAACC | 0.0995
GACGACTA | -0.121
CGTAAAGA | 0.389
CCGGAACG | 0.445
GGAAACGA | 0.426
CAATACGG | 0.0307
CACGAACA | 0.177
CCGCTGAA | -0.00985
AAGCTGCA | -0.0356
GAGGGATC | -0.0216
CACGAACG | 0.312
CGGGTCTC | 0.00746
AGTAAAGA | -0.225
TAATACCA | 0.0168
AACGACTT | 0.336
CTTTCGTC | 0.0061
GAAAACGA | 0.306
AAATACGC | 0.194
ATTTCGTG | 0.0706
GAATACGC | 0.152
CGGTCTGC | 0.0314
AAGGGCTG | -0.377
CGCCGTAG | 0.119
CAAGACTC | -0.126
ACGGAACT | 0.157
GTGAACTA | 0.0738
TAATACGA | 0.437
TACGAACA | 0.452
GGAACAGA | -0.378
